assay: soluble on expression in E. coli; label from the status in PepcDB or PDB records
assay-endpoint: soluble on expression in E. coli

soluble on expression in E. coli lookup needed for `MGDCDIEGKDGKQYESVLMVSIDQLLDSMKEIGSNCLNNEFNFFKRHICDANKEGMFLFRAARKLRQFLKMNSTGDFDLHLLKVSEGTTILLNCTGQVKGRKPAALGAAQPTKSLEENKSLKEQKKLNDLCFLKRLLQEIKTCWNKILMGTKEH` , thanks.
soluble

Can you check `MTMYQTINEWVDYIDKGCSVLHLDFNVFKKELSLDIKVFEDEGEYTHKISFQNVASAYYSADVGDMRLEKIDPEEYNWQVFEMSYHPEGIGNLSNSIIPEYQSNANFLIDMNRMLIAIEAETVRFDDQSFYAYQLNTKLEHHHHHH` next?
soluble

Field entry: `ADEFGNGDALDLPVGKDAVNSLIRENSHIFSDTQCKVCSAVLISESQKLAHYQSRKHANKVRRYMAINQGEDSVPAKKFKAAPAEISDGEDRSKCCPVCNMTFSSPVVAESHYIGKTHIKNLRLREQ`
soluble

====

test: soluble on expression in E. coli; label from the status in PepcDB or PDB records
assay-endpoint: soluble on expression in E. coli

Reference set (5 entries):
Bench note: what soluble on expression in E. coli did `GGSGRPEIWIAQELRRIGDEFNAYYARRV` show?
soluble

Same for `MGSDKIHHHHHHMFDTLASLGRDLQARETLNACLDRVFRDVCAQGFQSLVYDYAPVPLSMEGALITPSVFLQRNAPDDMHNVWCEHGYYQNDPVQQRATRRTTPFVWSYRTEGRTEGRTEGVEYVGDQHRQVTRYLCDSDMGTGVTVPLHLPGGAFATFSAAVNATQAEAPRLAEAQLPPFLLLAHAFQARAQELLDPQERRCHHIALTRRERECLQYSAKGMTAKSIAATLNRSTATVNLHLNSAARKLGARNRVEAVVRGMHYRLLEL`
not soluble

Okay, and `MGSDKIHHHHHHMKIAQIAPLFEAVPPRLYGGTERVVASICDALVKAGHQVDLYASGDSQSKARLIPCRERALRLDPAPLKSDIAAHYTLLDEVRRHAGEYDILHFHTDMLHFPFFEPIASKTLTTLHGRLDMADLPNAFKRWRQFPLVSISNDQRRALPGANWAGTVYHGLDPALYRFNPNPQGGYLAFLGRISPEKRPDRAIAIARKAGIPLKIAAKVDAADLNYYNDVIKPLLNQADVEFIGEITDAQKNDFLGNALALLFPVDWPEPFGLVMIEAMACGTPVIAWRCGSVPEIIEPGRNGFIVTDEHQAAAACHAATTLDRAKVREAFDMRFTSDVMAEHYLKLYKRLAASANDDNLMESQVG` ?
not soluble

Repeat for the following sequence: `MSLTRNRTVALAIIDMQNDFVLPGAPACVEGAMGTVPVIAGLLAKARAEGWMVLHVVRAHRADGSDAEKSREHLFLEGGGLCVAGTPGAEIVAGLEPASGETVLVKTRFSAFMGTECDMLLRRRGVDTLLVSGTQYPNCIRGTAVDAFALDYDVVVVTDACSARTPGVAESNINDMRAMGITCVPLTALDDVLARRPVPSGPPPREGHHHHHH`
soluble

Entry to check: `MRADGRSSCELRPVHIHPHYMKHAEGSVLIEIGDTKVICTATVEEKVPSFMRGGGKGWITAEYGMLPRATEQRNVREASKGKVSGRTMEIQRLIGRALRSVVDLEQLGERTIWIDCDVIQADGGTRTASITGAYVALVLALAKLVEEGKLEALPIRDFLAATSVGIDPEHGVILDLDYNEDARAKVDMNVVMTGAGQFVEIQGTGEEAVFSRAELDELLEAAQIGIEQLIAVQRRALGEWAARIGEKKEAAEEDTE`
not soluble

Further cases:
Quick one: soluble on expression in E. coli for `MSSNALYTDLSGYYDLMCSDINYQQQSASIHRLHQFLGNNGKQHLDLACGTGPHVRHFIDLGYQCSGLDINQPMLDMAMRRCPEAQFNLQDMTAFYLEQPVDLITCFLYSIHYSAGIERLKSCIASVHRALNDGGIFCFNSVDKHCIDNRLSIKHFAEFEGYHFAFESGWHYNGQGEKQSLNLSIAKRQQPFTQLTDFEADTSLHQTELWQDQHTMVATSFAELQALLAPYFEVHIFEHDYEKIVPWDLSSGNALFVCVKILEHHHHHH` ?
not soluble

====

assay: soluble on expression in E. coli; label from the status in PepcDB or PDB records
assay-endpoint: soluble on expression in E. coli

// known answers, use as guide
Which soluble on expression in E. coli reading was recorded for the sequence `GMDKLTHYRHTIQEIIKKYYDLSNSQPATATETKISDDLPDTVGDRLIIDEQRDQYLWLCCGWDGKKRVQHIILYLQIQNGKIWIEEDSTNLAIVDEMLVAGIPQTDIILGFHHPSKRGLTEFAIA` ?
soluble

Another: `MSHIQRETSCSRPRLNSNLDADLYGYRWARDNVGQSGATIYRLYGKPNAPELFLKHGKGSVANDVTDEMVRLNWLTAFMPLPTIKHFIRTPDDAWLLTTAIPGKTAFQVLEEYPDSGENIVDALAVFLRRLHSIPVCNCPFNSDRVFRLAQAQSRMNNGLVDASDFDDERNGWPVEQVWKEMHKLLPFSPDSVVTHGDFSLDNLIFDEGKLIGCIDVGRVGIADRYQDLAILWNCLGEFSPSLQKRLFQKYGIDNPDMNKLQFHLMLDEFF`
soluble

Would you kindly repeat that for `SLNIKDEHIDSVCSLLDQLVGNVSFKNLFTGYGLFHKEETMFAIWQNKKLYLRGEGVLAIQLTKLGCEPFTTNELNKRFVLSQYYALSDQILRSNRLCRKLIILSIKQILEQKLECTLRKLNRLKDLPNLTIKHERALIKVGITNVAMLREIGAENALVELKKSGSGATLDFYWKLVCALQNKNSQMLSQAEKERLLKKLNEVWRKNGLKGYRKLDDE` ?
not soluble

Here is the next sequence: `MESINYQILKRSEKKLLGLFFDYFQHVIKMHETLNKLLCEADVTKREKLIQAIYEMEDFSNKSEFKLINESIWAISKNSPLTNHLRLTITIIMCSRDLERICDYANNLTKFVKHYQHLDVSIFSKLVNLHKSVLNNLKQTFASLQDKEKPLTIQFENVTKILTEFEQQYRVVLTEYYDKVKDEKLSDRIFLIDLILSVKHIERINDYCYNIIKAFLFVKNPEVFN`
soluble

Then this sequence: `MACQTGIRANAALRNALNLGKQAKLRLIKIVVNNEEMTPNYEFAGTANWRDDWRACLPDCVDAYEPCFILFRLNTITEWVLITFVDDRAPVREKMLLAATCATFKSEFGQCYIEHEKHVTDLKDLTLNAFEAWLKAKTELGPMSEVERELHNAQQERAAIAHAGPQHMKGVAFPVDRNAEEALRQLASQKLSFVQLSVDTLNEAIKLEGTLESLEPSQLASKVPRDKPRYTFYNFDHTWEGVPQQCTLFIYSLPSSGSSIKERMLYSSCKGPFLSAAQNQYGVVITNKMEVDARDDLSEKALLEVIHPLPVEAPKQFSRPAPPRAGPRRITKV`
not soluble

Proceeding to the next sequence to report its soluble on expression in E. coli.
Item `MGHHHHHHSHMEFLTFLKSDYTHANLVDKALQLLKERILKGDTLAYFLRGQLYFEEGWYEEALEQFEEIKEKDHQATYQLGVMYYDGLGTTLDAEKGVDYMKKILDSPCPKARHLKFAAAYNLGRAYYEGKGVKRSNEEAERLWLIAADNGNPKASVKAQSMLGLYYSTKEPKELEKAFYWHSEACGNGNLESQGALGLMYLYGQGIRQDTEAALQCLREAAERGNVYAQGNLVEYYYKMKFFTKCVAFSKRIADYDEVHDIPMIAQVTDCLPEFIGRGMAMASFYHARCLQLGLGITRDETTAKHYYSKACRLNPALADELHSLLIRQRI` has what recorded soluble on expression in E. coli?
not soluble

====

assay: soluble on expression in E. coli; label from the status in PepcDB or PDB records
assay-endpoint: soluble on expression in E. coli

Give the measured soluble on expression in E. coli of `MGSDKIHHHHHHMSIKSGFVALAGKPNVGKSTFINAVMGRKVVIVSDKPQTTRNRINCIYTDKDSQIIFVDTPGIHKPLHRLGEYMVKAAVQALKGVDLVLFMLDAADGFTKTDEHVAKIVNDSGTKTIIAVNKIDVAGEEKAKAVGELAKSMVENVVSVHYISALKGEGVFEVLEKIKEELPEGPQYYPEDMVTDRPLSFMAAEIIREKIFHLTRQEVPHSTAVVIEEIKDRPNGVLYIRANIYVERDSQKGILIGKNGSMIKKIGTLAREELEFLVGRKVYLDLNVKVKEKWREKDFIILQEIGLKDDIK` .
not soluble

What do you get for `FDAVPDLIAILDTEYRIVRANRAMAARLGITPEECVGLTCYRVIHGTDEPPSFCPYRQLLKDGIEHTEEVREDSLGGDFILSVLPLHDSKGKIIGCTHFARDIN` ?
not soluble

What about `SLKINQEEDTVSSEKNKLCDNNNNNNMVHTRHIYNVCELNKCLRENKLIPYNNIYKMKHLYLNILDTFDENILKHVNKAHLFIDSVIQKKKNILIHSMAGISRCSSIILSYVSKKNKKGIEYNFNLLKSKYPFAHPNENFYRQLLLYEKMNYTLDGCTDYHNIYK` ?
not soluble
